Target: T1, CXCL13 (human, UniProt O43927 23-109)
T1 chain: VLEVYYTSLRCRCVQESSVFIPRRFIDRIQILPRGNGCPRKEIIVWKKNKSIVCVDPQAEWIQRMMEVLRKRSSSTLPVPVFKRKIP
Test: BLI
measurement.kind: Kd (nM)
Please reply with the bare figure in nM and do not write the unit itself.

Examples from the recorded data:
P1078_IXORI (natural protein) GSKGSSAQQSSHDSIKAEFCETNCTMKTGGKWTQCHGGCFCVHVGNETVGRCIKLDGDYDYPSSKHEE: 255
P1080_IXORI (natural protein) SAGSKGSSAPQSSGDSVVAEFCDTNCTMKKDGKWTECNGDCFCVHVGNETVGRCMRLDGDYDYTSSKTTRRNKKTRNGLCRLDRNRTTVDYPERNTREP: 1110

// below: Kd requested for another binder
Query string: Requested field: Kd. Item: P1124_IXORI (natural protein) DSKGTSDSQDSTKSIKVDFCETNCTKTDGGWTGCTGDCICVSVGDSIEGRCMDFG
Result string: 256

Origin of measurements: paper PMC6643034
